Assign ELISA Absorbance (405 nm-570 nm) to each entry below.
measurement target: T1, PTPRG-Fc (ECD of human PTPRG, aa 20-736, fused to human Fc gamma 1) (human, UniProt P23470 20-736)
T1 construct: Made in-house in Expi293 cells; Used in ELISA and SPR; also called recombinant PTPRG-Fc; PTRPG; not shown: human IgG1 Fc (Fc gamma 1) after the hinge
T1 sequence: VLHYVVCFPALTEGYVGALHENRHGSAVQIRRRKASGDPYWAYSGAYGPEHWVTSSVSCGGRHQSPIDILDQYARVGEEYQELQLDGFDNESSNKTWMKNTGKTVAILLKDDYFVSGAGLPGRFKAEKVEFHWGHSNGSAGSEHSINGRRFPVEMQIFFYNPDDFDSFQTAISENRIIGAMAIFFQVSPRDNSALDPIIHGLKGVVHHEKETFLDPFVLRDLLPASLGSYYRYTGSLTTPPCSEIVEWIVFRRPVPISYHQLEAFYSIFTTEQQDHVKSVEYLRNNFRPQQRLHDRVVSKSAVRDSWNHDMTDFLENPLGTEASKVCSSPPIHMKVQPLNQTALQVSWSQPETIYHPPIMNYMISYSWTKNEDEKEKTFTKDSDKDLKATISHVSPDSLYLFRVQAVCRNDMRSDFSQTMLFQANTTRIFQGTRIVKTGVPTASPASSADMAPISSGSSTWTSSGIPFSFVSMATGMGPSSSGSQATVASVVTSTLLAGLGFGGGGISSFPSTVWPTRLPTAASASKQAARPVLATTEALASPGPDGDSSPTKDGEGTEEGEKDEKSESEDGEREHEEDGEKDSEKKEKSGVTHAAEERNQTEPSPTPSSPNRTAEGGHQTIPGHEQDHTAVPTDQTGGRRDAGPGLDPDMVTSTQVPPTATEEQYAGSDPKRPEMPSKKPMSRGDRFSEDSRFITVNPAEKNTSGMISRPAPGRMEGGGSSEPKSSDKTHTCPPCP
assay method text: ELISA on coated PTPRG-Fc, 150 ng IgG1; None 0.117
Numbers only.

Look over these answered cases.
HW-17 chimeric rabbit-human IgG1 LA/LA/PG (antibody, V domains shown, Fc-silenced (L234A/L235A/P329G) IgG1, lambda; Alexa Fluor 647-labeled in single-step flow cytometry; Cluster C-1) VH: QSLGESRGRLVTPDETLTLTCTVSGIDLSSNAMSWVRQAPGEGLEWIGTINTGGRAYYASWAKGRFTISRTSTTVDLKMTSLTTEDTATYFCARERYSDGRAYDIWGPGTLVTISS VL: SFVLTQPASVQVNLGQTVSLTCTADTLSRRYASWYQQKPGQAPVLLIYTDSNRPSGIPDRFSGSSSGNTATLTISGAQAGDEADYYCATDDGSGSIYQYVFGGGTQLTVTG | 0.756
HW-56 chimeric rabbit-human IgG1 LA/LA/PG (antibody, V domains shown, Fc-silenced (L234A/L235A/P329G) IgG1, kappa; Alexa Fluor 647-labeled in single-step flow cytometry; Cluster C-45) VH: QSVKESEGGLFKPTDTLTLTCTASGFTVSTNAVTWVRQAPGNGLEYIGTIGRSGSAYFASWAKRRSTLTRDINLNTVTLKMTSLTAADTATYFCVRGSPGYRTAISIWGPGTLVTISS VL: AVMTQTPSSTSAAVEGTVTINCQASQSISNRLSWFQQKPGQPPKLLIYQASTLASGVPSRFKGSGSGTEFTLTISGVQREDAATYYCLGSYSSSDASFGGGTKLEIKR | 0.102

Endpoint output: ELISA Absorbance (405 nm-570 nm) of HW-113 chimeric rabbit-human IgG1 LA/LA/PG (antibody, V domains shown, Fc-silenced (L234A/L235A/P329G) IgG1, lambda; Alexa Fluor 647-labeled in single-step flow cytometry) VH: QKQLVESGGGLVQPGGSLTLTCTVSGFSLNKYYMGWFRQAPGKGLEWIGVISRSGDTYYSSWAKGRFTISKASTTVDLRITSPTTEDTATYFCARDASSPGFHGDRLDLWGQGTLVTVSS VL: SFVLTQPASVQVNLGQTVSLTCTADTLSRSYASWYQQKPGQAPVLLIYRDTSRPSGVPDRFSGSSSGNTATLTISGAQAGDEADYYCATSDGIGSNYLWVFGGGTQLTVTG . Value?
0.071
